Reported mass density values follow for various compounds
- Experiment: wn = mass fraction of the nth substance listed
- Measurement Setup: 303.15 K; 101 kPa; Liquid; Vibrating tube method; w1 = 0.1
Measurement Label: mass density (kg/m3)

>>> observed("CNCCCN [N-methyl-1,3-diaminopropane] + O")
988.5
>>> observed("CN(C)CCCN(C)C [N,N,N',N'-tetramethyl-1,3-propanediamine] + O")
983.3
>>> observed("NCCNCCN [di(2-aminoethyl)amine] + O")
998.5
>>> observed("CN(C)CCN(C)C [N,N,N',N'-tetramethyl-1,2-diaminoethane] + O")
982.9

---

Measured mass density, listed per entry for reference.
- Experiment: wn = mass fraction of the nth substance listed
- Measurement Setup: 318.15 K; 101 kPa; Liquid; Vibrating tube method; w1 = 0.2
Measurement Label: mass density (kg/m3)

>>> observed("NCCNCCN [di(2-aminoethyl)amine] + O")
996.3
>>> observed("CN(C)CCN(C)C [N,N,N',N'-tetramethyl-1,2-diaminoethane] + O")
964.4
>>> observed("CN(C)CCCN(C)C [N,N,N',N'-tetramethyl-1,3-propanediamine] + O")
964
>>> observed("CNCCCN [N-methyl-1,3-diaminopropane] + O")
976.4

---

In this section, each of the compounds is paired with its reported viscosity.
- Experiment: wn = mass fraction of the nth substance listed
- Measurement Setup: 303.15 K; 101 kPa; Liquid; Falling or rolling sphere viscometry; w1 = 0.2
Measurement Label: viscosity (mPa·s)

>>> observed("CN(C)CCN(C)C [N,N,N',N'-tetramethyl-1,2-diaminoethane] + O")
2.338
>>> observed("CN(C)CCCN(C)C [N,N,N',N'-tetramethyl-1,3-propanediamine] + O")
2.335
>>> observed("NCCNCCN [di(2-aminoethyl)amine] + O")
2.011
>>> observed("CNCCCN [N-methyl-1,3-diaminopropane] + O")
2.005

---

- Experiment: wn = mass fraction of the nth substance listed
- Measurement Setup: 323.15 K; 101 kPa; Liquid; Falling or rolling sphere viscometry; w1 = 0.2
Measurement Label: viscosity (mPa·s)

>>> observed("CN(C)CCCN(C)C [N,N,N',N'-tetramethyl-1,3-propanediamine] + O")
1.311
>>> observed("NCCNCCN [di(2-aminoethyl)amine] + O")
1.221
>>> observed("CNCCCN [N-methyl-1,3-diaminopropane] + O")
1.184
>>> observed("CN(C)CCN(C)C [N,N,N',N'-tetramethyl-1,2-diaminoethane] + O")
1.301

---

- Experiment: wn = mass fraction of the nth substance listed
- Measurement Setup: 313.15 K; 101 kPa; Liquid; Falling or rolling sphere viscometry; w1 = 0.4
Form field: viscosity (one value per entry).
Measurement Label: viscosity (mPa·s)

>>> observed("CN(C)CCN(C)C [N,N,N',N'-tetramethyl-1,2-diaminoethane] + O")
3.941
>>> observed("CNCCCN [N-methyl-1,3-diaminopropane] + O")
3.66
>>> observed("CN(C)CCCN(C)C [N,N,N',N'-tetramethyl-1,3-propanediamine] + O")
3.838
>>> observed("NCCNCCN [di(2-aminoethyl)amine] + O")
4.859

---

- Experiment: wn = mass fraction of the nth substance listed
- Measurement Setup: 303.15 K; 101 kPa; Liquid; Falling or rolling sphere viscometry; w1 = 0.4
Measurement Label: viscosity (mPa·s)

>>> observed("CNCCCN [N-methyl-1,3-diaminopropane] + O")
5.515
>>> observed("CN(C)CCN(C)C [N,N,N',N'-tetramethyl-1,2-diaminoethane] + O")
6.207
>>> observed("NCCNCCN [di(2-aminoethyl)amine] + O")
7.31
>>> observed("CN(C)CCCN(C)C [N,N,N',N'-tetramethyl-1,3-propanediamine] + O")
6.081

---

- Experiment: wn = mass fraction of the nth substance listed
- Measurement Setup: 323.15 K; 101 kPa; Liquid; Vibrating tube method; w1 = 0.3
Collected mass density values appear next to each entry.
Measurement Label: mass density (kg/m3)

>>> observed("CNCCCN [N-methyl-1,3-diaminopropane] + O")
967.9
>>> observed("CN(C)CCCN(C)C [N,N,N',N'-tetramethyl-1,3-propanediamine] + O")
945.8
>>> observed("CN(C)CCN(C)C [N,N,N',N'-tetramethyl-1,2-diaminoethane] + O")
947.8
>>> observed("NCCNCCN [di(2-aminoethyl)amine] + O")
998.9

---

- Experiment: wn = mass fraction of the nth substance listed
- Measurement Setup: 318.15 K; 101 kPa; Liquid; Taylor dispersion method; w1 = 0
Measurement Label: binary diffusion coefficient (m2/s)

>>> observed("CNCCCN [N-methyl-1,3-diaminopropane] + O")
"1.18e-09"
>>> observed("NCCNCCN [di(2-aminoethyl)amine] + O")
"1.03e-09"
>>> observed("CN(C)CCCN(C)C [N,N,N',N'-tetramethyl-1,3-propanediamine] + O")
"1.01e-09"
>>> observed("CN(C)CCN(C)C [N,N,N',N'-tetramethyl-1,2-diaminoethane] + O")
"1.05e-09"

---

The compounds listed here are annotated with their binary diffusion coefficient.
- Experiment: wn = mass fraction of the nth substance listed
- Measurement Setup: 303.15 K; 101 kPa; Liquid; Taylor dispersion method; w1 = 0
Measurement Label: binary diffusion coefficient (m2/s)

>>> observed("CN(C)CCN(C)C [N,N,N',N'-tetramethyl-1,2-diaminoethane] + O")
"7.34e-10"
>>> observed("CNCCCN [N-methyl-1,3-diaminopropane] + O")
"8.45e-10"
>>> observed("CN(C)CCCN(C)C [N,N,N',N'-tetramethyl-1,3-propanediamine] + O")
"7.01e-10"
>>> observed("NCCNCCN [di(2-aminoethyl)amine] + O")
"7.45e-10"

---

- Experiment: wn = mass fraction of the nth substance listed
- Measurement Setup: 308.15 K; 101 kPa; Liquid; Taylor dispersion method; w1 = 0.2
This section presents compounds with their documented binary diffusion coefficient values.
Measurement Label: binary diffusion coefficient (m2/s)

>>> observed("CN(C)CCCN(C)C [N,N,N',N'-tetramethyl-1,3-propanediamine] + O")
"4.41e-10"
>>> observed("CNCCCN [N-methyl-1,3-diaminopropane] + O")
"7.69e-10"
>>> observed("NCCNCCN [di(2-aminoethyl)amine] + O")
"7.61e-10"
>>> observed("CN(C)CCN(C)C [N,N,N',N'-tetramethyl-1,2-diaminoethane] + O")
"5.25e-10"

---

Each entry below carries its reported viscosity.
- Experiment: wn = mass fraction of the nth substance listed
- Measurement Setup: 313.15 K; 101 kPa; Liquid; Falling or rolling sphere viscometry; w1 = 0.2
Measurement Label: viscosity (mPa·s)

>>> observed("CN(C)CCCN(C)C [N,N,N',N'-tetramethyl-1,3-propanediamine] + O")
1.709
>>> observed("CN(C)CCN(C)C [N,N,N',N'-tetramethyl-1,2-diaminoethane] + O")
1.704
>>> observed("NCCNCCN [di(2-aminoethyl)amine] + O")
1.54
>>> observed("CNCCCN [N-methyl-1,3-diaminopropane] + O")
1.512

---

Entries and their viscosity
- Experiment: wn = mass fraction of the nth substance listed
- Measurement Setup: 318.15 K; 101 kPa; Liquid; Falling or rolling sphere viscometry; w1 = 0.1
Measurement Label: viscosity (mPa·s)

>>> observed("CNCCCN [N-methyl-1,3-diaminopropane] + O")
0.887
>>> observed("CN(C)CCCN(C)C [N,N,N',N'-tetramethyl-1,3-propanediamine] + O")
0.941
>>> observed("NCCNCCN [di(2-aminoethyl)amine] + O")
0.88
>>> observed("CN(C)CCN(C)C [N,N,N',N'-tetramethyl-1,2-diaminoethane] + O")
0.933

---

- Experiment: wn = mass fraction of the nth substance listed
- Measurement Setup: 313.15 K; 101 kPa; Liquid; Vibrating tube method; w1 = 0.2
Numbers after ± are expanded uncertainties.
Measurement Label: mass density

>>> observed("CN(C)CCCN(C)C [N,N,N',N'-tetramethyl-1,3-propanediamine] + O")
"967 ± 1 kg/m3"
>>> observed("CNCCCN [N-methyl-1,3-diaminopropane] + O")
"979.1 ± 1 kg/m3"
>>> observed("NCCNCCN [di(2-aminoethyl)amine] + O")
"998.7 ± 1 kg/m3"
>>> observed("CN(C)CCN(C)C [N,N,N',N'-tetramethyl-1,2-diaminoethane] + O")
"967.3 ± 1 kg/m3"

---

- Experiment: wn = mass fraction of the nth substance listed
- Measurement Setup: 313.15 K; 101 kPa; Liquid; Taylor dispersion method; w1 = 0.1
Measurement Label: binary diffusion coefficient (m2/s)

>>> observed("CNCCCN [N-methyl-1,3-diaminopropane] + O")
"9.36e-10"
>>> observed("CN(C)CCCN(C)C [N,N,N',N'-tetramethyl-1,3-propanediamine] + O")
"6.16e-10"
>>> observed("NCCNCCN [di(2-aminoethyl)amine] + O")
"8.95e-10"
>>> observed("CN(C)CCN(C)C [N,N,N',N'-tetramethyl-1,2-diaminoethane] + O")
"7.16e-10"

Where do these numbers come from? They come from the NIST ThermoML archive (doi:10.1016/j.fluid.2013.11.028).
